Data origin, for the record: patent US11912693B2

Target: UniProt P21453
Procedure Text: β-Arrestin2 recruitment assay (PathHunter), S1P1 CHO-K1 cells
Format: cell-based
Conditions Used: β-arrestin2 recruitment, S1P1 CHO-K1 cells
Sequence (P21453 whole entry, looked up): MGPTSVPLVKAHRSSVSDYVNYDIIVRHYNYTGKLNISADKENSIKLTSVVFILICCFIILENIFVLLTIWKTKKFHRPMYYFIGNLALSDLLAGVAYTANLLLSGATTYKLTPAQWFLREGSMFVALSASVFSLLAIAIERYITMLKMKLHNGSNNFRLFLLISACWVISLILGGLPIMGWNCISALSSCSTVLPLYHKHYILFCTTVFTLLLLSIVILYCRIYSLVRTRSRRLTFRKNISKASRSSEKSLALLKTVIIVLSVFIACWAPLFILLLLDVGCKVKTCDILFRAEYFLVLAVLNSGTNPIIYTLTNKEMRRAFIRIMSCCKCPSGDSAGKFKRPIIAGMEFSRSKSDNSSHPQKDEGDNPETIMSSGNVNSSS
Sequence (P32121 whole entry partner, looked up): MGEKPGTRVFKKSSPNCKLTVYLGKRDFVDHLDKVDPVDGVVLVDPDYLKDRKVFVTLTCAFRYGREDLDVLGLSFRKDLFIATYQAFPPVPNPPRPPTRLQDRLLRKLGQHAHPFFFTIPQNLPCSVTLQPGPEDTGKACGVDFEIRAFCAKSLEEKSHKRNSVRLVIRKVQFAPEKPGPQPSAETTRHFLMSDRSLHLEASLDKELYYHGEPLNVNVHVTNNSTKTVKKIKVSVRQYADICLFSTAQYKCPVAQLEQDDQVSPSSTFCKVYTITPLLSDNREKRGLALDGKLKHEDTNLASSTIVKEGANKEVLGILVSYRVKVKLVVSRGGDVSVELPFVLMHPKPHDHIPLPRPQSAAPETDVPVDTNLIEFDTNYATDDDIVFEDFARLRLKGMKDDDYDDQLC
Measurement Kind: hS1P1 B-arrestin2 pEC50

Data request: Return value of hS1P1 B-arrestin2 pEC50 for input CC(C)n1nnc2cc(-c3noc(-c4ccccc4OC(F)(F)F)n3)ccc21 [Compound 240] , no commentary.
Data returned: <5

Data request: Return value of hS1P1 B-arrestin2 pEC50 for input Cc1ccccc1-c1c[nH]c(-c2ccc3c(c2)nnn3C(C)C)c1 [Compound 516] , no commentary.
Data returned: >5

Data request: Return value of hS1P1 B-arrestin2 pEC50 for input CCC1(CC)CC(=O)c2cc(-c3nc(-c4ccc5ncoc5c4)no3)ccc2O1 [Compound 622] , no commentary.
Data returned: <5

Data request: Return value of hS1P1 B-arrestin2 pEC50 for input COc1cccc2nc(-c3ccc4c(c3)nnn4C(C)C)oc12 [Compound 515] , no commentary.
Data returned: >5

Data request: Return value of hS1P1 B-arrestin2 pEC50 for input N#Cc1cc(-c2nnc(-c3ccc4[nH]c(=O)oc4c3)o2)ccc1NCC1CC1 [Compound 486] , no commentary.
Data returned: <5

Data request: Return value of hS1P1 B-arrestin2 pEC50 for input CC(C)n1ccc2cc(-c3nc(-c4ccccc4F)cs3)ccc21 [Compound 403] , no commentary.
Data returned: <5

Data request: Return value of hS1P1 B-arrestin2 pEC50 for input CCC1(CC)CC(=O)c2cc(-c3nc(-c4ccncn4)no3)ccc2O1 [Compound 639] , no commentary.
Data returned: <5

Data request: Return value of hS1P1 B-arrestin2 pEC50 for input CCC1(CC)CC(=O)c2cc(-c3nc(-c4ccccc4Cl)no3)ccc2O1 [Compound 221] , no commentary.
Data returned: >5

Data request: Return value of hS1P1 B-arrestin2 pEC50 for input COc1ccc(-c2noc(-c3ccc4c(c3)nnn4C3CCCC3)n2)cc1C(F)(F)F [Compound 197] , no commentary.
Data returned: <5

====

Exercise: for every item that follows, state its recorded Emax.
Target: human sphingosine-1-phosphate receptor 1 (S1P1) (Homo sapiens (Human))
Procedure Text: β-Arrestin2 recruitment assay (PathHunter), S1P1 CHO-K1 cells
Assay type: cell-based
Conditions Used: CHO-K1; efficacy (SPAN) normalized to fingolimod; read-out: hS1P1 B-arrestin2 SPAN

Data request: Return value of Emax for input COc1ccc(-c2noc(-c3ccc4c(c3)nnn4CC(C)(C)O)n2)c(C)c1 [Compound 647] , no commentary.
Data returned: > 75%

Data request: Return value of Emax for input c1ccc(Cc2noc(-c3ccc4c(c3)nnn4C3CCCC3)n2)cc1 [Compound 92] , no commentary.
Data returned: < 75%

Data request: Return value of Emax for input COc1cccc(F)c1-c1noc(-c2ccc3c(c2)nnn3C(C)C)n1 [Compound 260] , no commentary.
Data returned: > 75%

Data request: Return value of Emax for input CC(C)(O)Cn1nnc2cc(-c3nc(-c4ccc5nc[nH]c5c4)no3)ccc21 [Compound 501] , no commentary.
Data returned: > 75%

Data request: Return value of Emax for input FC(F)Oc1ccc(-c2noc(-c3ccc4c(c3)nnn4C3CCCC3)n2)cc1 [Compound 80] , no commentary.
Data returned: < 75%

Data request: Return value of Emax for input CCC1(CC)CC(=O)c2cc(-c3nc(-c4ccc(O)nc4)no3)ccc2O1 [Compound 105] , no commentary.
Data returned: < 75%

Data request: Return value of Emax for input Cc1ccccc1-c1noc(-c2ccc3c(c2)nnn3C2CCCC2)n1 [Compound 175] , no commentary.
Data returned: > 75%

Data request: Return value of Emax for input CC(C)n1nnc2cc(-c3nc(-c4ccc(OCc5ccccc5)c(C(F)(F)F)c4)no3)ccc21 [Compound 296] , no commentary.
Data returned: < 75%

====

Target: human sphingosine-1-phosphate receptor 1 (S1P1) (Homo sapiens (Human))
Procedure Text: β-Arrestin2 recruitment assay (PathHunter), S1P1 CHO-K1 cells
Type: cell-based
Conditions Used: β-arrestin2 recruitment, S1P1 CHO-K1 cells
Measurement Kind: hS1P1 B-arrestin2 pEC50

Data request: Return value of hS1P1 B-arrestin2 pEC50 for input COc1cccc(-c2coc(-c3ccc4c(c3)nnn4C(C)C)n2)c1 , no commentary.
Data returned: <5

Data request: Return value of hS1P1 B-arrestin2 pEC50 for input Cc1ccccc1-c1coc(-c2ccc3c(c2)nnn3C(C)C)n1 , no commentary.
Data returned: >5

Data request: Return value of hS1P1 B-arrestin2 pEC50 for input CC(C)n1nnc2cc(-c3nc4cccc(Br)c4o3)ccc21 , no commentary.
Data returned: <5

Data request: Return value of hS1P1 B-arrestin2 pEC50 for input CCC1(CC)CC(=O)c2cc(-c3nc(-c4cncc(S(N)(=O)=O)c4)no3)ccc2O1 , no commentary.
Data returned: >5

Data request: Return value of hS1P1 B-arrestin2 pEC50 for input CSc1cccc(-c2nc(-c3ccc4c(c3)nnn4C3CCCC3)no2)c1 , no commentary.
Data returned: <5

Data request: Return value of hS1P1 B-arrestin2 pEC50 for input C=CCn1nc2ccc(-c3nc(-c4ccccc4)no3)cc2n1 , no commentary.
Data returned: <5

Data request: Return value of hS1P1 B-arrestin2 pEC50 for input CC(C)n1nnc2cc(-c3nc(-c4ccccn4)no3)ccc21 , no commentary.
Data returned: <5

Data request: Return value of hS1P1 B-arrestin2 pEC50 for input N#Cc1cc(-c2nnc(-c3ccc4[nH]cnc4c3)o2)ccc1NC(CF)CF , no commentary.
Data returned: >5

Data request: Return value of hS1P1 B-arrestin2 pEC50 for input Cc1ccccc1-c1nc(-c2ccc3c(ccn3C(C)C)c2)no1 , no commentary.
Data returned: >5

====

Exercise: for every item that follows, state its recorded hS1P1 cAMP pEC50.
Target: human sphingosine-1-phosphate receptor 1 (S1P1) (Homo sapiens (Human), UniProt P21453)
Procedure Text: Inhibition of cAMP production (HTRF cAMP HiRange), S1P1 CHO-K1 cells
Assay type: cell-based
Conditions Used: inhibition of cAMP production, S1P1 CHO-K1 cells
Method: Stable clonal Chinese hamster ovary K1 (CHO-K1) cells co-expressing EA-β-arrestin2 and the human sphingosine-1-phosphate receptor 1 (NM_001400, S1P1) with a C-terminal Prolink™ tag were purchased from DiscoverX corporation (Cat #: 93-0207C2). […] Agonist-promoted G-protein responses were determined by measuring changes in intracellular cAMP using the HTRF® cAMP HiRange kit (CisBio, Cat #: 62AM6PEJ) based on time-resolved fluorescence resonance energy transfer (TR-FRET) technology. […]
Sequence (P21453 whole entry, looked up): as the sequence (P21453 whole entry, looked up) above

Data request: Return value of hS1P1 cAMP pEC50 for input CC(C)n1ncc2cc(-c3nc(-c4cccc5c4OCO5)no3)ccc21 , no commentary.
Data returned: >6.5

Data request: Return value of hS1P1 cAMP pEC50 for input Cc1ccncc1-c1nc(-c2ccc3c(c2)nnn3C(C)C)no1 , no commentary.
Data returned: <6.5

Data request: Return value of hS1P1 cAMP pEC50 for input N#Cc1cc(-c2nnc(-c3ccc4[nH]cnc4c3)o2)ccc1NCC(F)F , no commentary.
Data returned: >6.5

Data request: Return value of hS1P1 cAMP pEC50 for input CC(C)n1nnc2cc(-c3noc(C4CCC4)n3)ccc21 , no commentary.
Data returned: <6.5

Data request: Return value of hS1P1 cAMP pEC50 for input COc1ccccc1-c1nnc(-c2ccc3c(c2)c(=O)on3C)o1 , no commentary.
Data returned: <6.5

====

Target: sphingosine-1-phosphate receptor 5 (S1P5) (Homo sapiens (Human), UniProt Q9H228)
Sequence (Q9H228 whole entry): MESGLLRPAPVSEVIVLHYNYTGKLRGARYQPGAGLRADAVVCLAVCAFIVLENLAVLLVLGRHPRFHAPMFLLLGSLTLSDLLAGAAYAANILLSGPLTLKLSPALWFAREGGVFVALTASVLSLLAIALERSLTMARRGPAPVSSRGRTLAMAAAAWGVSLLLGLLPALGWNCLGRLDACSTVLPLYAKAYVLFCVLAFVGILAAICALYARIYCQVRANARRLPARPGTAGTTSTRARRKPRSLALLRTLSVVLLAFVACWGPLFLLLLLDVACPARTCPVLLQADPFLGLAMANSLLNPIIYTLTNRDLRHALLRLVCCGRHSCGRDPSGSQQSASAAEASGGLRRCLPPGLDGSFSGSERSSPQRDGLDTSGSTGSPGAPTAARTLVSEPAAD
Procedure Text: Inhibition of cAMP production (HTRF), S1P5 CHO-K1 cells
Type: cell-based
Conditions Used: CHO-K1; efficacy normalized to fingolimod; read-out: hS1P5 cAMP SPAN
Measurement Kind: Emax

Data request: Return value of Emax for input C=CCNc1ccc(-c2nc(-c3ccc4[nH]ncc4c3)no2)cc1C#N , no commentary.
Data returned: > 50%

Data request: Return value of Emax for input Cc1ccccc1-c1noc(-c2ccc3c(c2)nnn3C(C)C)n1 , no commentary.
Data returned: > 50%

Data request: Return value of Emax for input CCC1(CC)CC(=O)c2cc(-c3nc(-c4ccc(NS(C)(=O)=O)cc4)no3)ccc2O1 , no commentary.
Data returned: < 50%

Data request: Return value of Emax for input C=CCNc1ccc(-c2nc(-c3ccc4[nH]cnc4c3)no2)cc1C#N , no commentary.
Data returned: > 50%

Data request: Return value of Emax for input CCC1(CC)CC(=O)c2cc(-c3nc(-c4cccnc4)no3)ccc2O1 , no commentary.
Data returned: < 50%

Data request: Return value of Emax for input CCC1(CC)CC(=O)c2cc(-c3nc(-c4ccncc4OC)no3)ccc2O1 , no commentary.
Data returned: < 50%

Data request: Return value of Emax for input COc1ccccc1-c1coc(-c2ccc3c(c2)nnn3C(C)C)n1 , no commentary.
Data returned: < 50%

Data request: Return value of Emax for input C=CCNc1ccc(-c2nc(-c3ccc(NS(C)(=O)=O)cc3)no2)cc1C#N , no commentary.
Data returned: > 50%

Data request: Return value of Emax for input CCC1(CC)CC(=O)c2cc(-c3nc(-c4ccc(C(=O)NC)cc4)no3)ccc2O1 , no commentary.
Data returned: > 50%

Data request: Return value of Emax for input CC(C)Nc1ccc(-c2nc(-c3ccc4c(c3)CCC(=O)N4)no2)cc1C#N , no commentary.
Data returned: < 50%

Data request: Return value of Emax for input CCC1(CC)CC(=O)c2cc(-c3nc(-c4cccnc4OC)no3)ccc2O1 , no commentary.
Data returned: < 50%
